Data origin: the supplement of paper PMC10567573

B1: DLC1 (parent)
chain: NDDSADYQHFLQDCVDGLFKEVKE

variants of: B1; test: protein stability index of a GFP-peptide fusion (GPS, HEK-293T) (PSI 1-6); higher = more stable; conditions: c terminus: a fixed tail appended;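 also: lentivirally expressed fusions sorted by FACS into six bins by GFP to DsRed ratio, PSI derived from sequencing read proportions per bin multiplied by bin number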
Recorded measurements of protein stability index, one per entry

Before answering, review these 6 worked examples.
>  <mutation notation>
E24K

>  <protein stability index>
2.2

$$$$
>  <mutation notation>
D13E

>  <protein stability index>
2.66

$$$$
>  <mutation notation>
L11I

>  <protein stability index>
3.54

$$$$
>  <mutation notation>
Q12I

>  <protein stability index>
3

$$$$
>  <mutation notation>
D2I

>  <protein stability index>
2.18

$$$$
>  <mutation notation>
Q12N

>  <protein stability index>
4.24

$$$$

Task item: Item "K23A" has what recorded protein stability index?
Reply: 2.56

Task item: Item "C14G" has what recorded protein stability index?
Reply: 4.86

Task item: Item "C14M" has what recorded protein stability index?
Reply: 3.63
